Where do these numbers come from? They come from patent US7605272B2.

SYSTEM_TESTED: IGF-1R (Homo sapiens)
Construct: purchased Upstate Co. 14-465
Sequence (P08069 959-1367 limits assumed): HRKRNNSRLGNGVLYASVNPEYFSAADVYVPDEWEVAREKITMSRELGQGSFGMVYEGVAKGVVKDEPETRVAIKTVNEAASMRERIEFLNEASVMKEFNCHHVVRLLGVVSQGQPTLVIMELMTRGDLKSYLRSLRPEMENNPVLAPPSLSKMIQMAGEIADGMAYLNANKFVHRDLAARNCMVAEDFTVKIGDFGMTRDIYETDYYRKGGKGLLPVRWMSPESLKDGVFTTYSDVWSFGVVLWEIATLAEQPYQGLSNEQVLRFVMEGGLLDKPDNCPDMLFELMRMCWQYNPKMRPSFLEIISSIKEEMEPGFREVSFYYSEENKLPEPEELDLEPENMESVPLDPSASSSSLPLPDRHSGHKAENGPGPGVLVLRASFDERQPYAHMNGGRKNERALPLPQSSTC
ASSAY_DETAILS: IGF-1R inhibitory activity (kinase reaction, time-resolved fluoroimmunoassay)
Type: biochemical
CONDITION_SUMMARY: IGF-1R active recombinant enzyme, test compound 10 μmol/L
READOUT_NAME: inhibitory activity (%) at 10 μmol/L

| COMPOUND | SYSTEM_TESTED | VAL |
| --- | --- | --- |
| COCCN(CCN(C)C)c1ccc(/C=C/c2n[nH]c3ccccc23)c(NC(=O)c2sccc2C)c1 [Compound 284] | IGF-1R (Homo sapiens) | 97.5 |
| O=C(Nc1cc(C(=O)N2CCN(CCO)CC2)ccc1/C=C/c1n[nH]c2ccccc12)c1ccccc1 [Compound 290] | IGF-1R (Homo sapiens) | 95.7 |
| COCCN(CCN1CCOCC1)c1ccc(/C=C/c2n[nH]c3ccccc23)c(NC(=O)c2sccc2C)c1 [Compound 267] | IGF-1R (Homo sapiens) | 100.3 |
| CC(C)C(=O)Nc1ccccc1/C=C/c1n[nH]c2ccccc12 [Compound 18] | IGF-1R (Homo sapiens) | 96.4 |
| CN1CCN(C(=O)c2ccc(/C=C/c3n[nH]c4ccccc34)c(N3C(=O)c4ccccc4C3=O)c2)CC1 [Compound 287] | IGF-1R (Homo sapiens) | 97.1 |
| Cn1cccc1C(=O)Nc1cc(CN2CCNCC2)ccc1/C=C/c1n[nH]c2ccccc12 [Compound 332] | IGF-1R (Homo sapiens) | 102.6 |
| C(=Cc1n[nH]c2ccccc12)c1ccccc1Nc1cnccn1 [Compound 155] | IGF-1R (Homo sapiens) | 97.9 |
| COc1c(OCCCN2CCOCC2)ccc(/C=C/c2n[nH]c3ccccc23)c1NC(=O)c1sccc1C [Compound 342] | IGF-1R (Homo sapiens) | 101.6 |
| CC(=O)CCN1CCN(Cc2ccc(/C=C/c3n[nH]c4ccccc34)c(NC(=O)c3sccc3C)c2)CC1 [Compound 313] | IGF-1R (Homo sapiens) | 100.7 |
